Molecular target: T1, 4H369-AA
T1 chain: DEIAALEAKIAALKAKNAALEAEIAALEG
Assay: two-hybrid library CCmax;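 note: natural log of median RNA to DNA barcode read ratio; higher means stronger binding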
Conditions: mean of both orientations
value.type: interaction score
Numbers only.

Example entries begin here.
>>> recorded_measurement("DKIAALEAENAALEAKNAALKAKIAALKG [4H2238-AA]")
2.28
>>> recorded_measurement("DKNAALKAEIAALKAEIAALKAKNAALKG [4H3664-AA]")
-1.44
>>> recorded_measurement("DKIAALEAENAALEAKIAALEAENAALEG [4H2211-AA]")
-1.37

For DKIAALKAEIAALEAKNAALEAKIAALKG [4H2614-AA] the binder record lists interaction score as 2.41

Data provenance is paper PMC10397247.
